# System name: Histone deacetylase 3/Nuclear receptor corepressor 2 (HDAC3/NCoR2) (Homo sapiens, UniProt O15379)
# Sequence (O15379 whole entry): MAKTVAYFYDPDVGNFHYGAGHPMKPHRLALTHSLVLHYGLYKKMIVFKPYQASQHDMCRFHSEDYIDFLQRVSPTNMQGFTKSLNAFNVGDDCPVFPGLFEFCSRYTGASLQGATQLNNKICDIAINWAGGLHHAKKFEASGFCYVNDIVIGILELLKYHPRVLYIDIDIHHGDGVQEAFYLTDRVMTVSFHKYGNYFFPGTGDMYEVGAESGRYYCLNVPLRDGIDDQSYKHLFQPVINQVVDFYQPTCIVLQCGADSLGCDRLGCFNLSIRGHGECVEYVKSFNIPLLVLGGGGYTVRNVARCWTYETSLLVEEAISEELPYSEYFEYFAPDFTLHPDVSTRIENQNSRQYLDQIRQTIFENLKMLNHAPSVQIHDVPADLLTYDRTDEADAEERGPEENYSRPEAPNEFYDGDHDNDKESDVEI
# Sequence (Q9Y618 whole entry, further chain): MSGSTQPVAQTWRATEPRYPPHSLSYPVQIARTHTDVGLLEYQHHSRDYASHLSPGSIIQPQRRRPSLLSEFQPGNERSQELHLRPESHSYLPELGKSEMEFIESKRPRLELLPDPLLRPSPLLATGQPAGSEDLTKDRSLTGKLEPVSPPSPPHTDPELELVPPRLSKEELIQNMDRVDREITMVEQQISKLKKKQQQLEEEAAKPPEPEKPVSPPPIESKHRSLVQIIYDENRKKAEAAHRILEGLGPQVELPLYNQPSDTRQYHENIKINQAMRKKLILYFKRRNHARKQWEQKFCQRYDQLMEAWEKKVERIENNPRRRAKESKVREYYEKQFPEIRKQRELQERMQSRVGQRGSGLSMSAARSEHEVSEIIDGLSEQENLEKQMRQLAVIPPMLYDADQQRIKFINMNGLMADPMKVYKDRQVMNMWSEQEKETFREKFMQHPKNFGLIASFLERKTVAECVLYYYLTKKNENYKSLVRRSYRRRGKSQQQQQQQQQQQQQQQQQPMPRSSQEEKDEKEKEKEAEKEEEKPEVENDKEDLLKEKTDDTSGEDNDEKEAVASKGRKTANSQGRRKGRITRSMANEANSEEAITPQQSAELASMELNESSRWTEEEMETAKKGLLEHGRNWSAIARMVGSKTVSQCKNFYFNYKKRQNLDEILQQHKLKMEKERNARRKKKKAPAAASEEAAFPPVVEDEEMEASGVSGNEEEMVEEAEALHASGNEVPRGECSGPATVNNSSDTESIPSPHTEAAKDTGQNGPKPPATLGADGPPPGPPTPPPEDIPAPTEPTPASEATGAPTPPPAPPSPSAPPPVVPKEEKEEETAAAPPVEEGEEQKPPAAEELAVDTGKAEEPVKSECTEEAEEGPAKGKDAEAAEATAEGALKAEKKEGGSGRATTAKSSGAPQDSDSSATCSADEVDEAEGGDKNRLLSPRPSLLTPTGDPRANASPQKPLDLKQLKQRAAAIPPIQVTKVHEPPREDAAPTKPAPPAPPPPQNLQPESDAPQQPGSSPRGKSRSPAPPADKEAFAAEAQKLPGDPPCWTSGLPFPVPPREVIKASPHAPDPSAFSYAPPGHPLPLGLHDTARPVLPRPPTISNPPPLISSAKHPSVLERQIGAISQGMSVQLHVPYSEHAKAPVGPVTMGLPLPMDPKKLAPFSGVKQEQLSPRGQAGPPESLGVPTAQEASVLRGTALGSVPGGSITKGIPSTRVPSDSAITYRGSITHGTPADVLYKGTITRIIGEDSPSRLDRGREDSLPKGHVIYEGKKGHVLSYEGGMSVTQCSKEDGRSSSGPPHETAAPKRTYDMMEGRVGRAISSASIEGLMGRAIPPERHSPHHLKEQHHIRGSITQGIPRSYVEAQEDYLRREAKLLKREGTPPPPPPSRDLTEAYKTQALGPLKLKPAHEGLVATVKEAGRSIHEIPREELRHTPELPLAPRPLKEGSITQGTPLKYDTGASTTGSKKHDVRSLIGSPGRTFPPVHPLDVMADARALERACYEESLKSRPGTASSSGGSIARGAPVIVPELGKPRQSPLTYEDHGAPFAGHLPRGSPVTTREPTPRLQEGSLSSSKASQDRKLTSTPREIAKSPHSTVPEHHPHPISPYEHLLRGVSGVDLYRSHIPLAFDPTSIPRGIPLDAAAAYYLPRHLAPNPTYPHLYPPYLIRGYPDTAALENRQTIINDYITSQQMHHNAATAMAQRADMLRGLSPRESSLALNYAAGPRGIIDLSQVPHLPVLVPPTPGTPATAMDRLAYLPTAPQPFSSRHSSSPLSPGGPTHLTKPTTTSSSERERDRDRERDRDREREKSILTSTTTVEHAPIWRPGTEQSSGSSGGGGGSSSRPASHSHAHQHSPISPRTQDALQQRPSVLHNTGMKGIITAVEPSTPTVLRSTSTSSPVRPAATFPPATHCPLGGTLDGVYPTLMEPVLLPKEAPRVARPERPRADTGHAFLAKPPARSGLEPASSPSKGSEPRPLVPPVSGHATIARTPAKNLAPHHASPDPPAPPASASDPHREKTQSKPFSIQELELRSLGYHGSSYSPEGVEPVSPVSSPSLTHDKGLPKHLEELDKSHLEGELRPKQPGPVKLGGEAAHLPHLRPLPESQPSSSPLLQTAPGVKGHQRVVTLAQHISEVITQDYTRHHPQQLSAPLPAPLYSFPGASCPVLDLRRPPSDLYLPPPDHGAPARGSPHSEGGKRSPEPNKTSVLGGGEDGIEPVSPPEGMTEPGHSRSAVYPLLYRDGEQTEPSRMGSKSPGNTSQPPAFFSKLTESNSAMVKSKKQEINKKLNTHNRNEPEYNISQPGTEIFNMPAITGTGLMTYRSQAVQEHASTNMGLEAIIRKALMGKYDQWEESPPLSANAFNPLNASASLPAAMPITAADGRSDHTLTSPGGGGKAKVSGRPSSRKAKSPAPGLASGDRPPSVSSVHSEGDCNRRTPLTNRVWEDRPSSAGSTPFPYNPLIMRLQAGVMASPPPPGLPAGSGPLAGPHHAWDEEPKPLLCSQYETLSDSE
# Assay method text: Inhibition of human HDAC3/NcoR2 using RHKKAc fluorogenic peptide as substrate preincubated for 10 mins followed by substrate addition by fluorescence based analysis
Readout type: IC50
Include the unit right after the number.

// returns reported IC50 for input COc1ccccc1CN1C(=O)C2=C(CCN(Cc3ccc(C(=O)Nc4ccccc4N)cc3)C2)N2CCN=C12
589 nM

###

# System name: Histone deacetylase 11 (Homo sapiens)
# Sequence (Q96DB2 whole entry): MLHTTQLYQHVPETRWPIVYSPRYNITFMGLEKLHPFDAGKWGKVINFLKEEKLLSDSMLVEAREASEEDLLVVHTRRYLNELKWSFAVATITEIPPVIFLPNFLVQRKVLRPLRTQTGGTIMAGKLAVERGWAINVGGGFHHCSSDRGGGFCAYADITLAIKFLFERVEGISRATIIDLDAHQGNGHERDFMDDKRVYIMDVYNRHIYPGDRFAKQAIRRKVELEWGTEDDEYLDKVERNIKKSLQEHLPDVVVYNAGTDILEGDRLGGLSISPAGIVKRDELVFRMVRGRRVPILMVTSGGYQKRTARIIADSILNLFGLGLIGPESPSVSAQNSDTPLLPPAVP
pIC50: −log10 of the molar value.
Readout type: pIC50

// returns reported pIC50 for input COc1ccccc1CN1C(=O)C2=C(CCN(Cc3ccc(C(=O)Nc4ccccc4N)cc3)C2)N2CCN=C12
< 5.00
